src = the nanobody polyreactivity screen of Harvey et al. (2022)

Assay Text: yeast display, Sf9 membrane polyspecificity reagent, FACS + sequencing; frameworks hold sequencing errors
Metric Name: polyreactivity (PSR sort gate)

Known results for sequences:
# Sequence Entry, Metric Name, Reading
rows = [
    ("QVQLVESGGGLVQAGGSLRLSCAASGRTFNYYAMGWYRQAPGKERELVAAISWSGTPTYYADSVKGRFTISRDNAKNTVYLQMNCLKPEDTAVYYCAAYLVSYPRGNYIRYDYWGQGTQVTVSS", "polyreactivity (PSR sort gate)", "low polyreactivity"),
    ("QVQLVESGGGLVQAGCSLRLSCAASGSTFYAYTKGGYRQAPGKERELVAAISWSDGTTYADSVKGRFTISRDNAKNTVYLQMNSLKPEDTAVYYCATDDVGPGLGYNYWGEGTQVTVSS", "polyreactivity (PSR sort gate)", "low polyreactivity"),
    ("QVQLVESGGGLVQAGGSLRLSCAASGRIFVRNAMGWYRQAPGKERELVADITNGGSTNYADSVKGRFTISRDNAKNTVYLQMNSLKPEYTAVYYCAADTLGVYDGDYWGQGTQVTVSS", "polyreactivity (PSR sort gate)", "low polyreactivity"),
    ("QVQLQESGGGLVQAGGSLRPSCAASGSISDGVRMGWYRQAPGEEGELVATTVLGATTNYADSVKGRFTISRGNAKNTVYLLMTSLKAEATAVYYCAAPLRYDKGFSYWGQGTQVTVSS", "polyreactivity (PSR sort gate)", "low polyreactivity"),
    ("QVQLVESGGGLVQAGGSLRLSCAASGSTFNYYAMGWYRPAPGKERELVAAICSRSSRTFYADSVKGRFSISRDNEKNTVYLQMNSLKPEDTAVYYCAVKKRAPDGDYWGQGSQVTVSS", "polyreactivity (PSR sort gate)", "high polyreactivity"),
]

Specify polyreactivity (PSR sort gate) for "QVQLVESGGGLVQAGGSLRLSCAASGFIFSRNVMGWYRQAPGKERELVAAISRSGGSTYYADSVKGRFTISRDNAKNTVYLQMNSLKTEYTAVYYCAASRINNVYLLKGDYWGQGTQVTVSS" and stop.
high polyreactivity

Specify polyreactivity (PSR sort gate) for "QVQLVESGGGLVQAGGSLRLSCAASGFTFTRYAMGWYRQAPGKERELVAAITRSGSSTYYADSVKGRFTISRDNAKNTVYLQMNSLKQEDTAVYYCAARLHSPRYRYDYWGQGNQVTVSS" and stop.
high polyreactivity

Specify polyreactivity (PSR sort gate) for "QVQLVESGGGLVQAGGSLRLSCAASGFTFYKYVMGWYRQAPGKERELVAAITTSGGSTYFADSVKGRFTISRDNAKNSVYLEMNSLKPEDTAVYYCNARSLHTSEGDYWGQGSQVTVSS" and stop.
low polyreactivity

###

Assay Text: yeast display, Sf9 membrane polyspecificity reagent, FACS + sequencing; frameworks hold sequencing errors
Metric Name: polyreactivity (PSR sort gate)

# Sequence Entry, Reading
data = [
    ("QVQLQESGGGQVQAGGSLRLSCAPSGYISSWYPKGWYRQAPGKEPEFVATIAPGATNYYADSVKGRFTISRDYAKNTVYQQMNSLKPEDTAVYYCAVVSNGRRERYYYWGQGTQVTVSS", "low polyreactivity"),
    ("QVQLVESGGGLVQAGGSLRLICAASGRIFLYYAMGWYRQAPGKERELVADINSGGNTTYADSVKGRFTISRDNAKNTVYLQMNSLKPEDTAVYYCAADPVFDLWEFVLDYGYDYWGQGTQVTVSS", "low polyreactivity"),
    ("QVQLVESGGGLVQAGGSLRLSCAASGSTFFGNAMGWYIQAPGKERELVAAIRFSGVGTYYADSVKGRFTISRDNAKNTVYLQLNSLKPEYTEVFYCAAESYYKYYWGQGTQVTVSS", "low polyreactivity"),
    ("QVQLVESGGGLVQAGGSLRLSCAASGYTFGSYAMGWYRQAPGKERELVAAISGGGSTNYADSVKGRFTISRDNAKNTVYLQMNSLKPEDTAVYYCAADIRWGQGTQVTVSS", "low polyreactivity"),
    ("QVQLVESGGVLVQAGGRLRLSCAASVFGRYAMGWYRQAPGKEREMVARISSSCGSTHYADSVKGRFTISRDNAKNTVYLEMNSLKPEDTAVYYCAARSYDTYWWYGYWGQGTQVTVSS", "high polyreactivity"),
]

Specify polyreactivity (PSR sort gate) for "QVQLVESGGGLVQAGGSLRLSCAASGSTSNVYAMGWYRQAPGKERELVAAIRWSGGNTYYADSVKGRFTISRDNAKNTFYLQMNSLKPEDTAVYYCAAFYRYVSTIFDYWGQGTQVTVSS" and stop.
high polyreactivity

Specify polyreactivity (PSR sort gate) for "QVQLVESGGGLVQAGGSLRLSCAASGSTFSYYAMGWYRQAPGKERELVAAITTSGGRTYYADSVKGRFTISRDNAKNTVYLQMNSLKPEDTAVYYCNARSGRLGDYWGQGTQVTVSS" and stop.
high polyreactivity

Specify polyreactivity (PSR sort gate) for "QVQLVESGGGLVQAGGSLRLSCAASGSILWHYAMGWYRQAPGKERELVAAISGSGRTNYADSVKGRFTISRDNAKNTVYLQMNSLKPEDTAVYYCARVHGTSESKYYYWGQGTQVTVSL" and stop.
low polyreactivity

Specify polyreactivity (PSR sort gate) for "QVQLVESGGGLVQAGGSLRLSCAASGSTSSVYAMGWYRQAPGKERELVAAISYRGARTYYADSVKGRFTISRDNAKNTVYFQMNSLKPEDTAVYYCAAENYPRRPRYDYWGQATQVTVSS" and stop.
high polyreactivity

Specify polyreactivity (PSR sort gate) for "QVQLVESGGGLVQAGGSLRLSCAASGLIFLQYVMGWSRQAPGKEREFVATITDDGDTTYYADSVKGRFTISRDNAKNTVYLQMNSLKPEDTAVYYCAADAEGSASKYDYWGQGTQVTVSS" and stop.
low polyreactivity

Specify polyreactivity (PSR sort gate) for "QVQLVESGGGLVQAGGSLRLSCAASGFTFPYYAMGWYRQAPGKERELVAAITSSGGSTYYADSVKGRFTISRDNAKNTVYLQMNSLKPEDTAVYYCAVDAYYYKWYDYWGQGTQVTVSS" and stop.
high polyreactivity

###

Assay Text: yeast display, Sf9 membrane polyspecificity reagent, FACS + sequencing; frameworks hold sequencing errors
Metric Name: polyreactivity (PSR sort gate)

# Sequence Entry, Metric Name, Reading
records = [
    ("QVQLVESGGGLVQAGGSLRLSCAASGFTLYDNAMGWYRQAPWKERELVAAISWSGGSTYYADSVKGRFTISRDNAKNTVYLQMNRLKPEDTAVYYCATDFVSYAEGRMEYWGLGTQVTVSS", "polyreactivity (PSR sort gate)", "low polyreactivity"),
    ("QVQLVESGGGLVQAGGSLRLSCAASGSTFWPYAMGWYRQAPGKERELVAAIRVIGGSTYYADSVKGRFTISRDNAKNSVYLQMNSLKPEDTAVYYCNAYRPGGARFYARYRYDYWGQGTQVTVSS", "polyreactivity (PSR sort gate)", "low polyreactivity"),
]

###

Assay Text: yeast display, Sf9 membrane polyspecificity reagent, FACS + sequencing; frameworks hold sequencing errors

# Sequence Entry, polyreactivity (PSR sort gate)
rows = [
    ("QVQLVESGGGLVQAGGSLRLSCAASGFTFGSNDMGWYRQAPVKERELVAAIDGSGDTYYADSVKGRFTISRDNAKNTVYLQMNSLKPEDTAVYYCAAGYTYYSLYGYWGQGTQVTVSS", "low polyreactivity"),
    ("QVQLQESGGGLMQAGGSQRLSCAASGSISYYSDMGWYRQAPGKEREFVAGIGYGTTTNYADSVKGRFTTSRDNAKNTVYLQMISMKTEDTAVYYCAAYQGNGYEFYYWGQGTQVTVRS", "low polyreactivity"),
]

###

Assay Text: yeast display, Sf9 membrane polyspecificity reagent, FACS + sequencing; frameworks hold sequencing errors
Metric Name: polyreactivity (PSR sort gate)

# Sequence Entry, Metric Name, Reading
data = [
    ("QVQLVESGGGLVQAGGSLRLSCAASGSTFANYAMGWYRQAPGKERELVAGISWRGGRTYYADSVKGRFTISRDNAKNTVYLQMNSLKPEDTAVYYCAVVHQTFTGDYWGQGTQVTVSS", "polyreactivity (PSR sort gate)", "high polyreactivity"),
    ("QVQLVESGGGLVQAGGSLRLSCAPSGITFYKYAMGWYRQAPGKERELVATISRRGGTTYYADSVKGRFTISRDNAKNTVYLQMNSLKPEDTAVYYCNADSRTYRYYWSYGYWGQGTQVTVSS", "polyreactivity (PSR sort gate)", "high polyreactivity"),
]

###

Assay Text: yeast display, Sf9 membrane polyspecificity reagent, FACS + sequencing; frameworks hold sequencing errors
Metric Name: polyreactivity (PSR sort gate)

Known results for sequences:
# Sequence Entry, Reading
data = [
    ("QVQLVESGGGLVQAGGSLRLSCAASGFIFRGYAMGWYRQAPGKERELVAAITYSTGNTYYADSVKGRFTISRDNAKNTVYLQMNSLKPEDTAVYYCNKVVRKFIGGYVYYSGGYWGQGTQVTVSS", "low polyreactivity"),
    ("QDQIVYSGGGLVQAGGSLRLSCAASVRTFYRYDLGWYIQAPGKESELVAAISYSGASTYYADSVKGRFTISRDIAKNTVYLQMNSLKPEDTAVYYCAARYHGRDPRQIRYGYWGQGTQVTVSS", "high polyreactivity"),
    ("QVQLVESGGGLVQAGGSLRLSCAASGITFWPYALGWYRPAPGKERELVAAIRASVGRTYYADSVKGRFTISRDNAKNTVYLQMNSLKPEDTAVYYCNAYGRYGKFRVEYDYWGQGTQVTVSS", "low polyreactivity"),
    ("QVQLVESGGGLVQAGGSLRLSCAASGSIFESYAMGWYRQAPGKEREFVAAISDSGADTYYADSVKGRFTISRDNAKNTVYLQMNSLKPEDTAVYYCNADKEFAVLGQGMDYWGQGTQVTVSS", "low polyreactivity"),
    ("QVQLVESGGGLVQAGGSLRLSCAASGSTFRWNAMGWYRQAPGKERELVAAISNGGSTNYADSVKGRFTISRDNAKNTVYLQMNSLIPEDTAVYYCATDGWYGQHYYDYDFDYYYWGQGTQVTVSS", "low polyreactivity"),
    ("QVQLVESGGGLVQAGGSLRLSCAASGRTFVYNAMGWYRQAPGKERELVAAINWRGGSTYYADSVKGRFTISRDNAKNTVSLQMNSLKPEDTAVYYCAPRNVYVWYDYWGQGTQVTVSS", "low polyreactivity"),
]

Specify polyreactivity (PSR sort gate) for "QVQLVESGGGLVQAGGSLRLSCAASGSTFGPYAMGWYRQAPGKERELVATITRNGGSTYYADSVKGRFTISRDNAKNTVYLQMNSLKPEDTAVYYCNAEGRWSSFTQRMDYWGQGTQVTVSS" and stop.
low polyreactivity

Specify polyreactivity (PSR sort gate) for "QVQLVESGGGLVQAGGSLRLSCAASGSTFAFYAMGWYRPAPGKERELVAAITWDGGTTYYADSVKGRFTIARDNAKNTVYLQMNSLKPEDSAVYYCAADYASVSIYDNVPSAPGYDYWGQGTQVTVSS" and stop.
low polyreactivity

Specify polyreactivity (PSR sort gate) for "QVQLVESGGGLVQAGGSLRLSCAASGSTFGWNAMGWYRQAPGKERELVAAITADDDDTYYADSVKGRFTISRDNAKNTVYLQMNSLKPEDTAVYYCATEKWFWYGDWYDYWGQGTQVTLSS" and stop.
high polyreactivity

Specify polyreactivity (PSR sort gate) for "QVQLVESGGGLVQAGGSLRLSCAASGSIYYNAMGWYRQAPGKERELVAAISTSGGTTYYADSVKGRFTISRDNAKNTVYLQMISQKPEDTAVYYCNARPSRRGAFDYWGQGTQVTVSS" and stop.
high polyreactivity

Specify polyreactivity (PSR sort gate) for "QVQLVESGGGLVQAGGSLRLSCAASGHIFVNKAMGWYRQAPGKEREFVAAITSNGARTYYADSVKGRFTISRDNAKNTVYLQMNSLKPEDTAVYYCAKRFARRSQRYDYWGQGTQVTVSS" and stop.
high polyreactivity

Specify polyreactivity (PSR sort gate) for "QVQLVESGGGLVQAGGSLRLSCAASGSIFAHYAMGWYRQAPGKERELVARISWSGGSTYYADSVKGRFTISRDNEKNTVYLQKNSMKPEDTAVYYCARAGRSWDTLYKYYLEHDYWGQGTQVTVSS" and stop.
low polyreactivity

Specify polyreactivity (PSR sort gate) for "QVQLVESGGGVVQAGGSLRLSCAASGRIFSSYAMGWYRQAPGKERELVAAITSGGSTDYADSVKGRFSISRDNAKNTVYLQMNSLKPEDTAVYYCAKAFLAPWTYSPYYMFYYWGQGTQVTVSS" and stop.
low polyreactivity

Specify polyreactivity (PSR sort gate) for "QVQLVESGGGLVQAGGSLRLSCAASGRTFDDYAMGWDRQAPGKERELVAAITQNGRDTYADSVKGRFTISRDNSKKYRLFTDVQPVTGRYRGLLLRCVRYEVNLYDYWGQGTQVTVST" and stop.
low polyreactivity
